system: Digitaria sanguinalis (DIGSA); test: Post-emergence efficacy, glasshouse spray test; assay type: in vivo; conditions: Digitaria sanguinalis, post-emergence, 312 h; application rate 500 g/Ha; evaluated after 13 days; read-out: Control of weed species DIGSA after post-emergence application (100=total damage to plant; 0=no damage to plant)
Hi, to clarify the labels: true covers pest or weed control at 500 g/ha from 60% upward, false covers anything below 60%.

In: Is pest or weed control at 500 g/ha for CC(C(=O)OC(C)(C)C)[n+]1ccc2ccccc2n1 (stereo not drawn) [Compound A116] at or above 60%?
Out: false

In: State whether the measured pest or weed control at 500 g/ha reaches 60%, counting equality as reaching it, for CNC(=O)c1c[n+](CCS(=O)(=O)[O-])nc2ccccc12 [Compound A13]
Out: false

In: Check if pest or weed control at 500 g/ha >= 60% (inclusive). Item: CN(C)C(=O)c1cccc2cc[n+](CCS(=O)(=O)[O-])nc12 [Compound A102]
Out: true

In: pest or weed control at 500 g/ha >= 60% for O=C(NC(C[n+]1ccc2ccccc2n1)C(=O)O)OCc1ccccc1 (stereo not drawn) [Compound A114] ?
Out: false

In: Does CNC(=O)c1c[n+](CCC(=O)O)nc2ccccc12 [Compound A14] have a reported pest or weed control at 500 g/ha of at least 60%?
Out: true

In: Form field: pest or weed control at 500 g/ha at least 60%? Entry: CN(C)C(=O)c1ccc2cc[n+](CCS(=O)(=O)[O-])nc2c1 [Compound A106]
Out: true

In: Hi team, for O=S(=O)([O-])CC[n+]1ccc2cc(-c3ccccc3)ccc2n1 [Compound A53] , is the recorded pest or weed control at 500 g/ha at or above 60%?
Out: false

In: hey, is pest or weed control at 500 g/ha for this one >= 60%? Cc1cccc2n[n+](CCS(=O)(=O)[O-])ccc12 [Compound A97]
Out: false

We now examine a further molecule.
In: Kindly determine if pest or weed control at 500 g/ha recorded for COC(=O)C(C)[n+]1ccc2ccccc2n1 (stereo not drawn) [Compound A120] is above or exactly 60%.
Out: false

Where these numbers come from: patent US20220046923A1
